Source of measurements: ChEMBL document CHEMBL1938354

# target.system: Aldo-keto reductase family 1 member B1 (Homo sapiens)
# test.description: Inhibition of human recombinant N-terminus His6-tagged AKR1B1 expressed in Escherichia coli BL21 DE3 assessed as pyridine-3-aldehyde reduction by spectrometric analysis
pIC50: −log10 of the molar value.
Label rule met when pIC50 is at or above 5; anything below gets rule not met.

compound: O=C(/C=C/c1ccc(O)c(O)c1)OCc1ccccc1 [BENZYL CAFFEATE]
assigned.class: rule met

compound: O=C(O)/C=C/c1ccc(O)cc1
assigned.class: rule not met

compound: CC(C)=CCc1cc(/C=C/C(=O)O)ccc1O
assigned.class: rule not met

compound: O=C(/C=C/c1cccc(O)c1)OCCCc1ccccc1
assigned.class: rule not met

compound: O=C(/C=C/c1ccc(O)cc1)OCc1ccccc1
assigned.class: rule met

Request: Reported pIC50 at or above 5? O=C(/C=C/c1ccc(O)cc1)OCCCc1ccccc1
Result: rule met

---

# target.system: Aldo-keto reductase family 1 member B10 (Homo sapiens, UniProt O60218, Q114T)
# Sequence (O60218 whole entry Q114T): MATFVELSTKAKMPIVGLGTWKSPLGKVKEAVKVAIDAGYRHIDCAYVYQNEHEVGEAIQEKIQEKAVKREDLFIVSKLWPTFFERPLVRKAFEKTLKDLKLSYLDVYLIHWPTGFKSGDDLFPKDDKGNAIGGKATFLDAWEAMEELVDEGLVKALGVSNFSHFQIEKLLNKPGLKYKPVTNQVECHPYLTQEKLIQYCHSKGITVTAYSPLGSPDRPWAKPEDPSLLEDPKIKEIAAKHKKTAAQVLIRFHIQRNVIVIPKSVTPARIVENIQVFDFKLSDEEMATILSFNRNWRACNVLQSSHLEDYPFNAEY
# test.description: Competitive inhibition at human recombinant N-terminus His6-tagged AKR1B10 Gln114Thr mutant expressed in Escherichia coli BL21 DE3 assessed as inhibition of NADP+ linked geraniol oxidation by fluorescence analysis
readout: pKi
Keep it numeric: pKi is minus log10 of the concentration in mol/L.

Request: Give the value of pKi reported for the following: COc1cc(O)ccc1/C=C/C(=O)OCCCc1cccc(O)c1
Result: 8.12

---

# target.system: Aldo-keto reductase family 1 member B10 (Homo sapiens, UniProt O60218, F123A)
# Sequence (O60218 whole entry F123A): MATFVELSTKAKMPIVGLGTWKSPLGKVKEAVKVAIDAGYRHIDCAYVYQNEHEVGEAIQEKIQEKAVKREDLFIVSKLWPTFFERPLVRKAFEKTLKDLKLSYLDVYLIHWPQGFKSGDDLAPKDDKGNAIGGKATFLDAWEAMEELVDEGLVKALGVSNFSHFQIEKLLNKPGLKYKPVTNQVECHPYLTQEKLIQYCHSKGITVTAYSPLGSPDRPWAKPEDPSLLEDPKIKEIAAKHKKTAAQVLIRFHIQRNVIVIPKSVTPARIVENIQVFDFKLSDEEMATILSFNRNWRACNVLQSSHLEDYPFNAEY
# test.description: Competitive inhibition at human recombinant N-terminus His6-tagged AKR1B10 Phe123Ala mutant expressed in Escherichia coli BL21 DE3 assessed as inhibition of NADP+ linked geraniol oxidation by fluorescence analysis
readout: Ki (nM)
Your answer should be a plain number; it is taken to be in nM.

Request: Answer with Ki of COc1cc(O)ccc1/C=C/C(=O)OCCCc1cccc(O)c1 measured for Aldo-keto reductase family 1 member B10 (Homo sapiens, UniProt O60218, F123A).
Result: 5.1

---

# target.system: Aldo-keto reductase family 1 member B10 (Homo sapiens, UniProt O60218)
# Sequence (O60218 whole entry): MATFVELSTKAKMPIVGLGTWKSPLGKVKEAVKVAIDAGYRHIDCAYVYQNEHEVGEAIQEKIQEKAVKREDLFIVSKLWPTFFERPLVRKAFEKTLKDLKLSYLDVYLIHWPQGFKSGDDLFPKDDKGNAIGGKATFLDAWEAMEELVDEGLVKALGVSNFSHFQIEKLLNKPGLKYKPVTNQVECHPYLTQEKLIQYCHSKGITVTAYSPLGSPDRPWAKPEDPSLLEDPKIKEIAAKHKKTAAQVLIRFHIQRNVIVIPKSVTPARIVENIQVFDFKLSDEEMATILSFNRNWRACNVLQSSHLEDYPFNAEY
# test.description: Inhibition of AKR1B10-mediated farnesal metabolism in human HeLa cells preincubated for 2 hrs measured after 6 hrs following [1-14C]farnesol addition
# Format: cell-based
readout: IC50 (nM)
Answer with a number only, understood to be in nM.

Request: State, in one line, measured IC50 of COc1cc(O)ccc1/C=C/C(=O)OCCCc1cccc(O)c1
Result: 300

---

# target.system: Aldo-keto reductase family 1 member B10 (Homo sapiens, UniProt O60218, V301L)
# Sequence (O60218 whole entry V301L): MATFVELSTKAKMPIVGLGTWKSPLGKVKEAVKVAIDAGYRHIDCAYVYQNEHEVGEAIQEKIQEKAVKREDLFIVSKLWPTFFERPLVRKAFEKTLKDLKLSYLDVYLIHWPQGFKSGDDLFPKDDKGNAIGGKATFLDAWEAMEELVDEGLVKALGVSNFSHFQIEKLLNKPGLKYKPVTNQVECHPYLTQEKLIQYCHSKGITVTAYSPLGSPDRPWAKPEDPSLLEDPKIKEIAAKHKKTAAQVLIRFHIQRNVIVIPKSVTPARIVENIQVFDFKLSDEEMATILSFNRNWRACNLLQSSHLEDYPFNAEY
# test.description: Competitive inhibition at human recombinant N-terminus His6-tagged AKR1B10 Val301Leu mutant expressed in Escherichia coli BL21 DE3 assessed as inhibition of NADP+ linked geraniol oxidation by fluorescence analysis
readout: Ki
Just the number plus its unit, please.

Request: // fetch Ki given entry COc1cc(O)ccc1/C=C/C(=O)OCCCc1cccc(O)c1
Result: 5.8 nM

---

# target.system: Aldo-keto reductase family 1 member B10 (Homo sapiens, UniProt O60218)
# test.description: Competitive inhibition at human recombinant N-terminus His6-tagged AKR1B10 expressed in Escherichia coli BL21 DE3 assessed as inhibition of NADP+ linked geraniol oxidation by fluorescence analysis
readout: Ki (nM)
Write it as a number; the unit nM goes unstated.

Request: Read off the recorded Ki for COc1cc(O)ccc1/C=C/C(=O)OCCCc1cccc(O)c1
Result: 2.6

---

# target.system: Aldo-keto reductase family 1 member B10 (Homo sapiens, UniProt O60218, S304A)
# Sequence (O60218 whole entry S304A): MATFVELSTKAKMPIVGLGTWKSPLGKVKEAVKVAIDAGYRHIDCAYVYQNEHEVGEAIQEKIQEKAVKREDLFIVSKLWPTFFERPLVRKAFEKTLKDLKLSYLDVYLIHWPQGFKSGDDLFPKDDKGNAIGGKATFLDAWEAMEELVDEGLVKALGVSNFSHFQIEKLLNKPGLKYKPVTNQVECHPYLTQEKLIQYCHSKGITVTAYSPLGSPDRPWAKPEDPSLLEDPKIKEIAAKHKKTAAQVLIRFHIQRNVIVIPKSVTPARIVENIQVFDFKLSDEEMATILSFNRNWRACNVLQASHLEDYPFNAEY
# test.description: Competitive inhibition at human recombinant N-terminus His6-tagged AKR1B10 Ser304Ala mutant expressed in Escherichia coli BL21 DE3 assessed as inhibition of NADP+ linked geraniol oxidation by fluorescence analysis
readout: Ki (nM)
Use nM as the unit, but write only the number.

Request: Dear colleague, please send me the reported Ki for COc1cc(O)ccc1/C=C/C(=O)OCCCc1cccc(O)c1 when you can.
Result: 3.5

---

# Species: Homo sapiens
# test.description: Selectivity ratio of IC50 for human recombinant N-terminus His6-tagged AKR1B1 to IC50 for human recombinant N-terminus His6-tagged AKR1B10
Readings of Ratio IC50 for the listed molecules
# respond with the number and nothing more

Solved cases (2 shown):
molecule: O=C(/C=C/c1ccc(O)cc1)OCCc1ccccc1
Ratio IC50: 31
//
molecule: COc1cc(O)ccc1/C=C/C(=O)OCCCc1ccccc1O
Ratio IC50: 766

Request: Given the molecule O=C(/C=C/c1ccc(O)cc1)OCCCc1ccccc1 , write its reported Ratio IC50.
Result: 52

Request: Name the recorded Ratio IC50 of the molecule listed here: COc1cc(O)ccc1/C=C/C(=O)OCCCc1ccc(O)cc1
Result: 478

Request: Please list Ratio IC50 recorded for the molecule O=C(/C=C/c1cccc(O)c1)OCCCc1ccccc1
Result: 13

Request: Tell me its Ratio IC50 given O=C(/C=C/c1ccc(O)c(O)c1)OCCc1ccccc1 as the entry.
Result: 7

Request: State, in one line, measured Ratio IC50 of CC(C)OC(=O)/C=C/c1ccc(O)cc1 [ISOPROPYL 3-(4-HYDROXYPHENYL)ACRYLATE]
Result: 7

---

# target.system: Aldo-keto reductase family 1 member B10 (Homo sapiens, UniProt O60218, Q303S/V301L)
# Sequence (O60218 whole entry V301L/Q303S): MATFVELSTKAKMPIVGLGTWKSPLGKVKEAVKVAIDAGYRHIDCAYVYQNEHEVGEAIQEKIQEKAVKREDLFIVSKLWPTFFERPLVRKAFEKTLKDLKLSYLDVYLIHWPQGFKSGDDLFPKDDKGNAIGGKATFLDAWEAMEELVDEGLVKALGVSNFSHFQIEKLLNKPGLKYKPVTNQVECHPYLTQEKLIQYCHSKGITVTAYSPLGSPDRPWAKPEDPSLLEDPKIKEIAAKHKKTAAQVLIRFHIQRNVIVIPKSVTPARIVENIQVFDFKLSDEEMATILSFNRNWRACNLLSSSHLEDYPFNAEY
# test.description: Competitive inhibition at human recombinant N-terminus His6-tagged AKR1B10 Val301Leu/Gln303Ser double mutant expressed in Escherichia coli BL21 DE3 assessed as inhibition of NADP+ linked geraniol oxidation by fluorescence analysis
readout: pKi
Scale note: pKi = -log10(concentration in M).

Request: Dear colleague, please send me the reported pKi for COc1cc(O)ccc1/C=C/C(=O)OCCCc1cccc(O)c1 when you can.
Result: 7.64

---

# target.system: Aldo-keto reductase family 1 member B10 (Homo sapiens, UniProt O60218, Q303S)
# Sequence (O60218 whole entry Q303S): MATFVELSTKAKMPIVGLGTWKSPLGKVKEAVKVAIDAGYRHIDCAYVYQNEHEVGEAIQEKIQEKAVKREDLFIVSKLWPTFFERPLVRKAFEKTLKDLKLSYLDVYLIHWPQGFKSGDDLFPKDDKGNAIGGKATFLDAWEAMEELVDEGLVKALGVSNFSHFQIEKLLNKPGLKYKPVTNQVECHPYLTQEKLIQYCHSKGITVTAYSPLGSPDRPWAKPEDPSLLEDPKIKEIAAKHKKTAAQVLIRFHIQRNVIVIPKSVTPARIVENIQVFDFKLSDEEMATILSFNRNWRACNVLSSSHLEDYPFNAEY
# test.description: Competitive inhibition at human recombinant N-terminus His6-tagged AKR1B10 Gln303Ser mutant expressed in Escherichia coli BL21 DE3 assessed as inhibition of NADP+ linked geraniol oxidation by fluorescence analysis
readout: Ki (nM)
Answer in nM, number only, no unit symbol.

Request: Name the recorded Ki of the item COc1cc(O)ccc1/C=C/C(=O)OCCCc1cccc(O)c1 in your answer.
Result: 7.1

---

# target.system: Aldo-keto reductase family 1 member B10 (Homo sapiens, UniProt O60218)
# test.description: Inhibition of human recombinant N-terminus His6-tagged AKR1B10 expressed in Escherichia coli BL21 DE3 assessed as pyridine-3-aldehyde reduction by spectrometric analysis
pIC50: −log10 of the molar value.
Output y for pIC50 not less than 7; output n otherwise.

compound: CC(C)OC(=O)/C=C/c1ccc(O)cc1 [ISOPROPYL 3-(4-HYDROXYPHENYL)ACRYLATE]
target.system: Aldo-keto reductase family 1 member B10 (Homo sapiens, UniProt O60218)
assigned.class: n

compound: CC(C)=CCc1cc(/C=C/C(=O)O)ccc1O
target.system: Aldo-keto reductase family 1 member B10 (Homo sapiens, UniProt O60218)
assigned.class: n

compound: CC(C)=CCc1cc(/C=C/C(=O)O)cc(CC=C(C)C)c1O [ARTEPILLIN]
target.system: Aldo-keto reductase family 1 member B10 (Homo sapiens, UniProt O60218)
assigned.class: n

compound: O=C(/C=C/c1cccc(O)c1)OCCc1ccccc1
target.system: Aldo-keto reductase family 1 member B10 (Homo sapiens, UniProt O60218)
assigned.class: n

Request: API: above_or_equal(metric=pIC50, cutoff=7) for item COc1cc(O)ccc1/C=C/C(=O)OCCCc1ccccc1
Result: y

Request: Can O=C(O)/C=C/c1ccc(O)cc1 be said to have pIC50 at or above 7?
Result: n

Request: Is it the case that O=C(/C=C/c1ccc(O)c(O)c1)O[C@@H]1C[C@](O)(C(=O)O)C[C@@H](O)[C@H]1O (relative stereo) has pIC50 reaching or exceeding 7?
Result: n

Request: Item COc1cc(O)ccc1/C=C/C(=O)OCCc1ccccc1 with pIC50 of 7 or above?
Result: y

Request: Given COc1cc(O)ccc1/C=C/C(=O)OCCc1ccccc1O , state whether its pIC50 is at least 7.
Result: y

---

# target.system: Aldo-keto reductase family 1 member B10 (Homo sapiens, UniProt O60218, W220Y)
# Sequence (O60218 whole entry W220Y): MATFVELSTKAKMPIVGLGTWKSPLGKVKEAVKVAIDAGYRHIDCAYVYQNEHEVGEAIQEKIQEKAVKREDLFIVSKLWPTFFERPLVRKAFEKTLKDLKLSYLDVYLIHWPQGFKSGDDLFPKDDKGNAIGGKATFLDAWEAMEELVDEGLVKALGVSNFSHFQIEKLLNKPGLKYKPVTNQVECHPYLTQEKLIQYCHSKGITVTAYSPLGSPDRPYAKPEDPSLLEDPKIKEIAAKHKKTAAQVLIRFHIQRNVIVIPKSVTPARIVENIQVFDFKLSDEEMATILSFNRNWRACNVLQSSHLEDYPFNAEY
# test.description: Competitive inhibition at human recombinant N-terminus His6-tagged AKR1B10 Trp220Tyr mutant expressed in Escherichia coli BL21 DE3 assessed as inhibition of NADP+ linked geraniol oxidation by fluorescence analysis
readout: pKi
Please treat pKi as minus the base-10 logarithm of the molar concentration.

Request: Check the records and state pKi for COc1cc(O)ccc1/C=C/C(=O)OCCCc1cccc(O)c1
Result: 7.82

---

# target.system: Aldo-keto reductase family 1 member B1 (Homo sapiens, UniProt P15121)
# test.description: Inhibition of human recombinant N-terminus His6-tagged AKR1B1 expressed in Escherichia coli BL21 DE3 assessed as pyridine-3-aldehyde reduction by spectrometric analysis
# pIC50 per record follows
// returns pIC50 (minus log10 of molar concentration), number only

Guide cases for pIC50, answers given:
compound: COc1cc(O)ccc1/C=C/C(=O)OCCc1cccc(O)c1
target.system: Aldo-keto reductase family 1 member B1 (Homo sapiens, UniProt P15121)
readout: pIC50
experimental.result: 5.14
--
compound: COc1cc(O)ccc1/C=C/C(=O)OCCc1ccccc1
target.system: Aldo-keto reductase family 1 member B1 (Homo sapiens, UniProt P15121)
readout: pIC50
experimental.result: 5.14

Request: Please report the measured pIC50 for O=C(/C=C/c1ccc(O)cc1)OCCc1ccccc1
Result: 5.66

Request: Hello, please tell me recorded pIC50 for this one: COc1cc(O)ccc1/C=C/C(=O)OCCCc1ccccc1
Result: 4.96

Request: Entry COc1cc(O)ccc1/C=C/C(=O)OCCc1ccccc1O needs its pIC50 filled in; supply it.
Result: 5.02

Request: Report pIC50 for O=C(/C=C/c1ccc(O)c(O)c1)O[C@@H]1C[C@](O)(C(=O)O)C[C@@H](OC(=O)/C=C/c2ccc(O)c(O)c2)[C@H]1O (relative stereo)
Result: 7.06
